- systemTested: GPR3 (Homo sapiens)
- Construct: expressed in transfected cells; host or cells: CHO cells
- Sequence (P46089 whole entry, species assumed): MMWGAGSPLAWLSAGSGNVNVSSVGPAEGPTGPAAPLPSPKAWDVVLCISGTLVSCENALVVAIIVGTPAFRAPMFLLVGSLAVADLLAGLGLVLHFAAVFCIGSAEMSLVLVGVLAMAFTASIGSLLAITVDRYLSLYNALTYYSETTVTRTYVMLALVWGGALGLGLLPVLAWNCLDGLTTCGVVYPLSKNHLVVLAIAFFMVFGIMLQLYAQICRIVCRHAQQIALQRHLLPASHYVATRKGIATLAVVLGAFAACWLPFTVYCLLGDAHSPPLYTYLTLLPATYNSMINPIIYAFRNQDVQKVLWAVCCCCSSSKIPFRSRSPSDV
- assayNotes: GPR3 antagonist functional cAMP assay (LANCE Ultra cAMP TR-FRET, CHO cells stably expressing GPR3)
- Assay type: cell-based
- reportedConditions: CHO cells stably expressing GPR3, cAMP assay
pIC50: −log10 of the molar value.
List of pIC50 values.
endpointLabel: pIC50

molecule | testResult
CC(=O)N1CCc2nc(N3CCN(Cc4cc(F)ccc4Cl)CC3)c(-c3cnn(C)c3)nc2C1 | 4.52 to 6.00
Cn1cc(-c2nc3cc(C(O)C(C)(C)O)ncc3nc2N2CCC(Oc3ccc(F)cc3F)CC2)cn1 (single isomer, unassigned) [Compound 561] | 6.00 to 7.00
CC(=O)N1CCc2nc(N3CCN(Cc4cn[nH]c4)CC3)c(-c3cnn(C)c3)nc2C1 | ≤ 4.52
CC(C)(O)C(C)(O)c1cc2nc(N3CCN(Cc4ccc(F)cc4F)CC3)c(-c3cnn(CF)c3)nc2cn1 (stereo not shown) | 4.52 to 6.00
CCn1cc(-c2nc3c(nc2N2CCC(Oc4ccc(F)cc4F)CC2)CCN(C(=O)C2COCCN2)C3)cn1 (stereo not shown) | 4.52 to 6.00
CC(=O)N1CCc2nc(N3CCN(Cc4cccs4)CC3)c(-c3cnn(C)c3)nc2C1 | 4.52 to 6.00
CC(C)(O)[C@@H](O)c1cc2nc(N3CCN(Cc4ccc(F)cc4F)CC3)c(-c3cnn(CF)c3)nc2cn1 (single isomer, unassigned) | 4.52 to 6.00
